Some compounds, each annotated with its measured pIC50.
- target_entity: DYRK1A (Homo sapiens)
- Construct: purchased Carna Biosciences, Inc. 04-130
- protocol_details: Inhibition test on activity of DYRK family, mobility shift assay (MSA): DYRK1A
- Format: biochemical
- protocol_conditions: MSA, FITC-labeled DYRKtide peptide, ATP 100 μM; read-out: Inhibitory activity DYRK 1A (IC50 class)
pIC50: −log10 of the molar value.

Below, 5 compounds whose answers are already recorded.
                                   compound  assay_endpoint  reported_result
0  CN1CC[C@@H]2NC(=O)N(c3nc4c5c(ccc4s3)OCC5)[C@@H]2C1 (relative stereo) [Example 7]           pIC50     7.00 to 8.00
1  CN1CC[C@@H]2[C@H](C1)NC(=O)N2c1nc2c3c(ccc2s1)OCC3 (relative stereo) [Example 9]           pIC50     7.00 to 8.00
2  CN1C[C@@H]2[C@H](CC13CC3)NC(=O)N2c1nc2c3c(ccc2s1)OCC3 [Example 90]           pIC50     7.00 to 8.00
3  O=C1N[C@@H]2CO[C@H](CO)[C@@H]2N1c1nc2c3c(ccc2s1)OCC3 [Example 154]           pIC50           ≤ 6.00
4  CCN1CCC2C(C1)NC(=O)N2c1nc2c3c(ccc2s1)OCC3 (stereo not shown) [Example 12]           pIC50     7.00 to 8.00

Need pIC50, item O=C1N[C@H]2CO[C@@H](CO)C[C@H]2N1c1nc2c3c(ccc2s1)OCC3 [Example 144]
> 8.00

Continue with CN1CCC[C@@H]2[C@H](C1)NC(=O)N2c1nc2c3c(ccc2s1)OCC3 [Example 18]
7.00 to 8.00
